Sourced from patent US20220177587A1

Catalogue of Relative Luciferase Units (RLU), CD80 Conc 5.0 nM values
Molecular target: CD28 (Homo sapiens, UniProt P10747)
Assay: Jurkat/IL2 + CHO/OKT3 +/- PD-L1 reporter assay: PD-L1-dependent CD28 costimulation
Type: cell-based
Parameters: host or cells: Jurkat cells expressing an IL-2-luciferase reporter
Settings: Table E26; linker variants; Jurkat/IL2 + CHO/OKT3/PD-L1; 5.0 nM
Assay readout: Relative Luciferase Units (RLU), CD80 Conc 5.0 nM

[[record]]
molecule = "E35D/D46V/M47L/V68M/L85Q/E88D GS(G4S)3 (protein, UniProt P33681 35-288, looked up, variant E35D D46V M47L V68M L85Q E88D, GS(G4S)3 linker) T-lymphocyte activation …: VIHVTKEVKEVATLSCGHNVSVEELAQTRIYWQKDKKMVLTMMSGVLNIWPEYKNRTIFDITNNLSIMILALRPSDEGTYECVVQKYDKDAFKREHLAEVTLSVKADFPTPSISDFEIPTSNIRRIICSTSGGFPEPHLSWLENGEELNAINTTVSQDPETELYAVSSKLDFNMTTNHSFMCLIKYGHLRVNQTFNWNTTKQEHFPDNLLPSWAITLISVNGIFVICCLTYCFAPRCRERRRNERLRRESVRPV"
observed_value = 1592

[[record]]
molecule = "E35D/D46V/M47L/V68M/L85Q/E88D delta (protein) VIHVTKEVKEVATLSCGHNVSVEELAQTRIYWQKDKKMVLTMMSGVLNIWPEYKNRTIFDITNNLSIMILALRPSDEGTYECVVQKYDKDAFKREHLAEVTLSVKTHTCPPCPAPEAEGAPSVFLFPPKPKDTLMISRTPEVTCVVVDVSHEDPEVKFNWYVDGVEVHNAKTKPREEQYNSTYRVVSVLTVLHQDWLNGKEYKCKVSNKALPAPIEKTISKAKGQPREPQVYTLPPSREEMTKNQVSLTCLVKGFYPSDIAVEWESNGQPENNYKTTPPVLDSDGSFFLYSKLTVDKSRWQQGNVFSCSVMHEALHNHYTQKSLSLSPG"
observed_value = 1079

